- Test system: CCRIS mutagenicity, Ames/micronucleus/aberration tests
- Assay: CCRIS mutagenicity studies
- Test Context: Test System: AMES SALMONELLA TYPHIMURIUM; Strain/Indicator: TA100; Metabolic Activation: NONE; Method: STANDARD PLATE
Calls of active or inactive are those of the source. No rule for the calls is given here.
Your answer must be one of the following: active, inactive

Consider the following illustrative entries.
# Molecule, Group Label
records = [
    ("C1CC[C@H]2O[C@H]2C1", "active"),
    ("CCc1ccc2c(c1[N+](=O)[O-])C(=O)c1ccccc1C2=O", "inactive"),
    ("N=C1C=CC(=C(c2ccc(N)cc2)c2ccc(N)cc2)C=C1", "active"),
]

IN: Which outcome was entered for the molecule C1CCC2OCCOCCOCCOC3CCCCC3OCCOCCOCCOC2C1 (stereo not given) in this test?
OUT: inactive

IN: Which outcome was entered for the molecule O=C1CCCCC1=O in this test?
OUT: active

IN: Which outcome was entered for the molecule CN1CCN(c2ccc3nc(-c4ccc5nc(-c6ccc(O)cc6)[nH]c5c4)[nH]c3c2)CC1 in this test?
OUT: inactive

IN: Which outcome was entered for the molecule c1ccc2cnncc2c1 in this test?
OUT: inactive

IN: Which outcome was entered for the molecule O=C(Nc1cc(Cl)cc(Cl)c1O)c1c(O)c(Cl)cc(Cl)c1Cl in this test?
OUT: inactive

IN: Which outcome was entered for the molecule O=C([O-])c1ccccn1.O=C([O-])c1ccccn1.O=C([O-])c1ccccn1.[Cr+3] in this test?
OUT: inactive

IN: Which outcome was entered for the molecule CCCCCCCCCCSCn1cc[n+](C)c1 in this test?
OUT: inactive

====

- Tested on: CCRIS mutagenicity, Ames/micronucleus/aberration tests
- Assay: CCRIS mutagenicity studies
- Test Context: Test System: AMES SALMONELLA TYPHIMURIUM; Strain/Indicator: TA1538; Metabolic Activation: RAT LIVER S-9, PHENOBARBITAL AND BETA-NAPHTHOFLAVONE; Method: PREINCUBATION
The source made the active and inactive calls. The rule behind the calls is not given here.
Observed Property: mutagenic call

Worked examples, 6 molecules total:
# Smiles Repr, mutagenic call
rows = [
    ("CCN1CCNC(=O)C1=O", "inactive; negative"),
    ("[Cl][Mn][Cl]", "inactive; negative"),
    ("NCCO", "inactive; negative"),
    ("C1CC[C@H]2O[C@H]2C1", "inactive; negative"),
    ("Nc1cc(S(=O)(=O)O)c2cccc(S(=O)(=O)O)c2c1", "inactive; negative"),
    ("O=c1n(Cl)c(=O)n(Cl)c(=O)n1Cl", "inactive; negative"),
]

IN: Give recorded mutagenic call with CCRIS mutagenicity, Ames/micronucleus/aberration tests for the following molecule: O.O.O.O.O.O.[Cl-].[Cl-].[Ni+2]
OUT: inactive; negative

IN: Give recorded mutagenic call with CCRIS mutagenicity, Ames/micronucleus/aberration tests for the following molecule: CC=O
OUT: inactive; negative

IN: Give recorded mutagenic call with CCRIS mutagenicity, Ames/micronucleus/aberration tests for the following molecule: Sc1ccccc1
OUT: inactive; negative

====

- Test system: CCRIS mutagenicity, Ames/micronucleus/aberration tests
- Assay: CCRIS mutagenicity studies
- Test Context: Test System: AMES SALMONELLA TYPHIMURIUM; Strain/Indicator: TA100; Metabolic Activation: HAMSTER, LIVER, S-9, AROCLOR 1254 (10%); Method: PREINCUBATION
The source made the active and inactive calls. The rule behind the calls is not given here.
Your answer must be one of the following: 1 for active, -1 for inactive

Consider the following illustrative entries.
# Molecule, Group Label
records = [
    ("O=C1c2ccccc2C(=O)C1c1ccc2ccccc2n1", -1),
    ("[N-]=[N+]=[N-]", 1),
    ("Nc1ccc(Oc2ccc(N)cc2)cc1", 1),
    ("CCN(CC)C(=S)SSC(=S)N(CC)CC", -1),
]

IN: Which outcome was entered for the molecule CC(=O)/C=C/c1ccc2c(c1)OCO2 in this test?
OUT: -1

IN: Which outcome was entered for the molecule CCCCCCCCOc1ccc(C(=O)O)cc1 in this test?
OUT: -1

IN: Which outcome was entered for the molecule Cc1ccc(OP(=O)(Oc2ccc(C)cc2C)Oc2ccc(C)cc2C)c(C)c1 in this test?
OUT: -1

IN: Which outcome was entered for the molecule Cc1ccc(C#N)cc1 in this test?
OUT: -1

IN: Which outcome was entered for the molecule O=[N+]([O-])c1ccc(O)c([N+](=O)[O-])c1 in this test?
OUT: -1

IN: Which outcome was entered for the molecule CC(C)C(C)C in this test?
OUT: -1

IN: Which outcome was entered for the molecule CCNCC in this test?
OUT: -1

IN: Which outcome was entered for the molecule [O]=[Zr] in this test?
OUT: -1

IN: Which outcome was entered for the molecule CC(CN1c2ccccc2Sc2ccccc21)N(C)C (centres undefined) in this test?
OUT: -1

IN: Which outcome was entered for the molecule C=C(C)C(=O)OC(C)C in this test?
OUT: -1
